- protocolSummary: Half life in mouse at 3 mg/kg, iv
- Format: ADME, organism-based
- details: in vivo
valueKind: half-life (h)
Your answer should be a plain number; it is taken to be in h.

Report half-life for CC/C(=C(/c1ccc(/C=C/C(=O)O)cc1)c1ccc2[nH]ncc2c1)c1ccc(F)cc1Cl please. 4.2

====

- protocolSummary: Cmax in mouse at 10 mg/kg, po
- Assay type: ADME, organism-based
- Set-up: dose 10 mg/kg, route oral
- details: in vivo
valueKind: Cmax (ng/mL)
// note: answer is a bare numeric in ng/mL

Need Cmax, item CC/C(=C(/c1ccc(/C=C/C(=O)O)cc1)c1ccc2[nH]ncc2c1)c1ccc(F)cc1Cl [BRILANESTRANT] 4400

====

- protocolSummary: Volume of distribution at steady state in dog at 3 mg/kg, iv and 10 mg/kg, po
- Assay type: ADME, organism-based, Canis lupus familiaris
- details: in vivo, read-out: Vdss
valueKind: Vd (L/kg)
Kindly answer with a numeric value in L/kg, unit omitted.

Can you share its Vd? I mean this compound: CC/C(=C(/c1ccc(/C=C/C(=O)O)cc1)c1ccc2[nH]ncc2c1)c1ccc(F)cc1Cl [BRILANESTRANT] 0.2

====

- protocolSummary: Volume of distribution at steady state in mouse at 3 mg/kg, iv and 10 mg/kg, po
- Assay type: ADME, organism-based
- details: in vivo, read-out: Vdss
valueKind: Vd (L/kg)
Report the figure in L/kg without appending any unit label.

Quick one: Vd for CC/C(=C(/c1ccc(/C=C/C(=O)O)cc1)c1ccc2[nH]ncc2c1)c1ccc(F)cc1Cl [BRILANESTRANT] ? 1.2

====

Listed compounds paired with reported AUC
- protocolSummary: AUC in mouse at 100 mg/kg, po
- Type: ADME, organism-based
- details: in vivo
Just the number please, in µg·h/mL, no unit attached.

- CC/C(=C(\c1ccccc1)c1ccc(/C=C/C(=O)O)cc1)c1ccccc1: 137

For the compound shown here, CC/C(=C(/c1ccc(/C=C/C(=O)O)cc1)c1ccc2[nH]ncc2c1)c1ccccc1 , give the reported AUC. 240

====

- protocolSummary: in vivo
- details: mouse, iv, 3 mg/kg
valueKind: clearance (mL/min/kg)
Could you give me the number in mL/min/kg? Just the number is fine.

Give the measured clearance of CC/C(=C(/c1ccc(/C=C/C(=O)O)cc1)c1ccc2[nH]ncc2c1)c1ccc(F)cc1Cl . 11

====

- protocolSummary: Volume of distribution at steady state in rat at 3 mg/kg, iv and 10 mg/kg, po
- Type: ADME, organism-based
- details: in vivo, read-out: Vdss
valueKind: Vd (L/kg)
Numeric answer only, unit L/kg assumed.

What value of Vd has been reported for the following compound? CC/C(=C(/c1ccc(/C=C/C(=O)O)cc1)c1ccc2[nH]ncc2c1)c1ccc(F)cc1Cl 1.9

====

- protocolSummary: AUC in 17-beta estradiol pellets supplemented nu/nu mouse xenografted with tamoxifen-resistant human MCF7 cells at 30 mg/kg/day, po administered for 4 weeks measured on day 28
- Type: ADME, organism-based
- details: in vivo
valueKind: AUC at 672 h (ng·h/mL)
Just the number in ng·h/mL, nothing appended.

If you can, please state the reported AUC at 672 h value of CC/C(=C(/c1ccc(/C=C/C(=O)O)cc1)c1ccc2[nH]ncc2c1)c1ccc(F)cc1Cl [BRILANESTRANT] . 21000
